Target: T1, C57BL/6 mouse SIRPα ECD recombinant protein (6×His tagged) (C57BL/6 mouse, UniProt P97797 32-373)
T1 construct: extracellular domain; Bought from Biointron; not shown: 6×His tag
T1 sequence (looked up): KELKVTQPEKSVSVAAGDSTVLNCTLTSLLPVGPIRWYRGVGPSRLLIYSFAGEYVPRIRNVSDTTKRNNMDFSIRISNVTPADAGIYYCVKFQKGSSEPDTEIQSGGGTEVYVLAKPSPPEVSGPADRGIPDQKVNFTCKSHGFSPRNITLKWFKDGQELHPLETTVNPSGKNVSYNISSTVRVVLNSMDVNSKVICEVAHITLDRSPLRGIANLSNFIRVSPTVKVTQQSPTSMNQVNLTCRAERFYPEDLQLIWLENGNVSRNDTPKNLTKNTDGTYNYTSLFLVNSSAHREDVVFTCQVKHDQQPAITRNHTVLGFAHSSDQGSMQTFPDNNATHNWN
Test: ELISA, recombinant C57BL/6 mouse SIRPα ECD
Readout: binding result

Binder	Readout	Test result
071c (antibody, V domains shown, also called chimeric antibody 071c) VH: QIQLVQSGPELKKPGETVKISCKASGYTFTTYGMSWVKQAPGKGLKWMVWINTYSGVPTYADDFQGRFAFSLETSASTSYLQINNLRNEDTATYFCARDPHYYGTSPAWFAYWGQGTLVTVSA VL: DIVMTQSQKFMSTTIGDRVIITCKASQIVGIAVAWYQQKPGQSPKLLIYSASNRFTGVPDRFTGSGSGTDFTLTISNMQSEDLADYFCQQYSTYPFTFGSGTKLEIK	binding result	no binding
015c (antibody, V domains shown, also called chimeric antibody 015c) VH: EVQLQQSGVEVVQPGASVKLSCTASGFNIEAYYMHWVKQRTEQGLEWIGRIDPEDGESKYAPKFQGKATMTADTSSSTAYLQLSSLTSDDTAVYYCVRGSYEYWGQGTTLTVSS VL: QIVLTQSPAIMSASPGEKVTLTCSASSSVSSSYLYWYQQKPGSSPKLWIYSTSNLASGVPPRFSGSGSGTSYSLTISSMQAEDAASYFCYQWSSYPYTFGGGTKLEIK	binding result	no binding
073c (antibody, V domains shown, also called chimeric antibody 073c) VH: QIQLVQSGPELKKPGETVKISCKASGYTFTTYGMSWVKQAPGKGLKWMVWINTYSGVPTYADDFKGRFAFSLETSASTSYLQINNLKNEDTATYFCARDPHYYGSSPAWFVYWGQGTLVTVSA VL: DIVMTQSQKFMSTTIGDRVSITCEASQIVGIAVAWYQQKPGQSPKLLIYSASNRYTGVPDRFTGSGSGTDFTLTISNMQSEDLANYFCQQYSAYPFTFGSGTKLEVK	binding result	no binding
